# tgt: Carbonic anhydrase 2 (Homo sapiens)
pKi: −log10 of the molar value.
recorded.endpoint: pKi

NS(=O)(=O)c1ccc(CCNC(=S)N[C@@H]2O[C@H](CO)[C@@H](O[C@H]3O[C@H](CO)[C@@H](O)[C@H](O)[C@H]3O)[C@H](O)[C@H]2O)cc1 = 6.57
NS(=O)(=O)c1ccc(C(=O)NNC(=S)N[C@@H]2O[C@H](CO)[C@@H](O[C@H]3O[C@H](CO)[C@@H](O)[C@H](O)[C@H]3O)[C@H](O)[C@H]2O)cc1 = 6.96
CC(=O)OC[C@H]1O[C@@H](NC(=S)NNC(=O)c2ccc(S(N)(=O)=O)cc2)[C@H](OC(C)=O)[C@@H](OC(C)=O)[C@@H]1OC(C)=O = 8.00
NS(=O)(=O)c1ccc(NC(=S)N[C@@H]2O[C@H](CO)[C@@H](O)[C@H](O)[C@H]2O)cc1 = 8.15
NS(=O)(=O)c1ccc(CNC(=S)N[C@@H]2O[C@H](CO)[C@H](O)[C@H](O)[C@H]2O)cc1 = 7.22
NS(=O)(=O)c1ccc(CCNC(=S)N[C@@H]2O[C@H](CO)[C@@H](O[C@@H]3O[C@H](CO)[C@H](O)[C@H](O)[C@H]3O)[C@H](O)[C@H]2O)cc1 = 8.05

A = CC(=O)OC[C@H]1O[C@@H](NC(=S)Nc2ccc(S(N)(=O)=O)cc2)[C@H](OC(C)=O)[C@@H](OC(C)=O)[C@@H]1O[C@H]1O[C@H](COC(C)=O)[C@@H](OC(C)=O)[C@H](OC(C)=O)[C@H]1OC(C)=O
B = CC(=O)OC[C@H]1O[C@@H](O[C@H]2[C@H](OC(C)=O)[C@@H](OC(C)=O)[C@H](NC(=S)NNC(=O)c3ccc(S(N)(=O)=O)cc3)O[C@@H]2COC(C)=O)[C@H](OC(C)=O)[C@@H](OC(C)=O)[C@H]1OC(C)=O
C = NS(=O)(=O)c1ccc(CCNC(=S)N[C@@H]2O[C@H](CO)[C@@H](O)[C@H](O)[C@H]2O)cc1
D = CC(=O)OC[C@H]1O[C@@H](NC(=S)NCc2ccc(S(N)(=O)=O)cc2)[C@H](OC(C)=O)[C@@H](OC(C)=O)[C@H]1OC(C)=O
Problem: Order the 4 compounds from highest to lowest pKi. Please list the labels in the order you were asked to rank them.
Solution: B, D, C, A

P = NS(=O)(=O)c1ccc(C(=O)NNC(=S)N[C@@H]2O[C@H](CO)[C@H](O)[C@H](O)[C@H]2O)cc1
Q = NS(=O)(=O)c1ccc(CCNC(=S)N[C@@H]2O[C@H](CO)[C@H](O)[C@H](O)[C@H]2O)cc1
R = NS(=O)(=O)c1ccc(CNC(=S)N[C@@H]2O[C@H](CO)[C@@H](O[C@@H]3O[C@H](CO)[C@H](O)[C@H](O)[C@H]3O)[C@H](O)[C@H]2O)cc1
Problem: Ranking field: pKi; order: falling. Use the labels to give the requested order.
Solution: Q, R, P

a = CC(=O)OC[C@H]1O[C@@H](NC(=S)Nc2ccc(S(N)(=O)=O)cc2)[C@H](OC(C)=O)[C@@H](OC(C)=O)[C@H]1OC(C)=O
b = CC(=O)OC[C@H]1O[C@@H](NC(=S)NCc2ccc(S(N)(=O)=O)cc2)[C@H](OC(C)=O)[C@@H](OC(C)=O)[C@@H]1O[C@H]1O[C@H](COC(C)=O)[C@@H](OC(C)=O)[C@H](OC(C)=O)[C@H]1OC(C)=O
Problem: Which is greater in pKi, the first item a or the second item b ? Indicate your choice by writing its label.
Solution: b
(b: 8.14, a: 6.28)

Provenance of the data: ChEMBL document CHEMBL1955849
